# ASSAY_OVERVIEW: Hepatocyte stability, CLint (in vitro hepatocytes), rat
# Format: in vitro ADME
# CONDITION_SUMMARY: pooled cryopreserved hepatocytes, 1.0 million cells/mL, 37° C., read-out: in vitro intrinsic clearance (CLint)
# Procedure: Hepatocyte stability assays were performed using pooled cryopreserved hepatocytes (Bioreclamation). […] Samples were centrifuged and the supernatant fractions analysed for parent compound by mass spectrometry (LC-MS/MS). The amount of compound remaining (expressed as %) was determined from the MS response in each sample relative to that in the T=0 samples (normalised for internal standard). […]
QUANTITY_MEASURED: hepatocyte CLint at 1 μM

(Q) Which hepatocyte CLint at 1 μM reading was recorded for the molecule CC(C)(C)NC(=O)C1CCN([C@H]2C[C@H]3CC[C@@H](C2)N3c2nc(C(F)(F)F)no2)CC1 ?
(A) 8 µL/min/1e6 cells

###

# ASSAYED_SYSTEM: human muscarinic M1 receptor (Homo sapiens, UniProt P11229)
# Construct: expressed in transfected cells
# Sequence (P11229 whole entry): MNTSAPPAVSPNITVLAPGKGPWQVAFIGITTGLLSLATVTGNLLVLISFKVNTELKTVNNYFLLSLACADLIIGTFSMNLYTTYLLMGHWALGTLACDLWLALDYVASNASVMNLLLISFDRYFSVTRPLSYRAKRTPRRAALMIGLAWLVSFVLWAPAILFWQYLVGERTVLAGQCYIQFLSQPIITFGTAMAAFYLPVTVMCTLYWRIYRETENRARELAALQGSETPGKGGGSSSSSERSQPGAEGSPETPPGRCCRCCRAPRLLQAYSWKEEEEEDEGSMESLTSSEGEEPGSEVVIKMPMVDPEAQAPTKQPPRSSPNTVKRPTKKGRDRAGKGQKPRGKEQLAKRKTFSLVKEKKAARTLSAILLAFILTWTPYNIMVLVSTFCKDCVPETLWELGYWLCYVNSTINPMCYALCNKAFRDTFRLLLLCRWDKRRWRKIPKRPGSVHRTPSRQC
# ASSAY_OVERVIEW: Alphascreen Surefire phospho-ERK1/2 functional assay, M1
# Type: cell-based
# CONDITION_SUMMARY: recombinant human EC50 (M1), as quoted in FIG. 1 legend; 50% target engagement
QUANTITY_MEASURED: EC50 (nM)
Dear colleague, please return just the value in nM, with no unit written.

(Q) Which EC50 reading was recorded for the compound CC(C)(C)NC(=O)C1CCN([C@H]2C[C@H]3CC[C@@H](C2)N3c2nc(C(F)(F)F)no2)CC1 ?
(A) 86
